test system: Human erythropoietin (hEPO) levels in sera; assay: Delivery of hEPO mRNA by intramuscular administration of lipid nanoparticles; serum hEPO by ELISA; type: in vivo, Mouse; details: fourth occasion; serum, 6 hours post dose; 0.1 μg/animal hEPO mRNA LNP, IM, mice, n=4
Overview of reported hEPO 6 Hr (ng/mL) Mean across a group of compounds:
Write the value in ng/mL as a bare number.

Known results for compounds:
compound	measurement-unit	reported-result
CCCCCCCCCCC(O)CN(CCCOC(=O)N[C@@H](Cc1c[nH]cn1)C(=O)OCCCN(CC(O)CCCCCCCCCC)CC(O)CCCCCCCCCC)CC(O)CCCCCCCCCC (stereo partly shown)	ng/mL	15.4
CCCCCCCCCCC(O)CN(CCCOC(=O)[C@H](CCc1ccc(O)cc1)NC(=O)CCCN(CC(O)CCCCCCCCCC)CC(O)CCCCCCCCCC)CC(O)CCCCCCCCCC (stereo partly shown)	ng/mL	37.2
CCCCCCCCCCC(O)CN(CCCOC(=O)[C@H](CCc1ccccc1)NC(=O)CCCN(CC(O)CCCCCCCCCC)CC(O)CCCCCCCCCC)CC(O)CCCCCCCCCC (stereo partly shown)	ng/mL	37.3

Consider now this further compound.
Recorded hEPO 6 Hr (ng/mL) Mean of CCCCCCCCCCC(O)CN(CCCOC(=O)[C@H](Cc1ccccc1)NC(=O)CCCN(CC(O)CCCCCCCCCC)CC(O)CCCCCCCCCC)CC(O)CCCCCCCCCC (stereo partly shown) , please.
22.4
